Organism: Homo sapiens
Assay: Stimulatory activity against serotonin secretion (SEC).
Assay type: functional, organism-based
EXPERIMENTAL READOUT: pIC50
Give only the number. pIC50 is defined as minus log10 of concentration in molar units.

input: Given the molecule Cl.Oc1ccc(Cc2ncc[nH]2)cc1O , what is its reported pIC50?
output: 4.44

---

Organism: Homo sapiens
Assay: Effective concentration for secondary wave aggregation was determined
Type: functional, organism-based
EXPERIMENTAL READOUT: EC50 (µM)
Express it in µM; write the number only.

input: Given the compound Oc1ccc(C[C@@H]2CNC=N2)cc1O , what is its reported EC50?
output: 4.89
